- tgt: human TRPV4 (hTRPV4) (Homo sapiens, UniProt Q9HBA0)
- Sequence (Q9HBA0 whole entry): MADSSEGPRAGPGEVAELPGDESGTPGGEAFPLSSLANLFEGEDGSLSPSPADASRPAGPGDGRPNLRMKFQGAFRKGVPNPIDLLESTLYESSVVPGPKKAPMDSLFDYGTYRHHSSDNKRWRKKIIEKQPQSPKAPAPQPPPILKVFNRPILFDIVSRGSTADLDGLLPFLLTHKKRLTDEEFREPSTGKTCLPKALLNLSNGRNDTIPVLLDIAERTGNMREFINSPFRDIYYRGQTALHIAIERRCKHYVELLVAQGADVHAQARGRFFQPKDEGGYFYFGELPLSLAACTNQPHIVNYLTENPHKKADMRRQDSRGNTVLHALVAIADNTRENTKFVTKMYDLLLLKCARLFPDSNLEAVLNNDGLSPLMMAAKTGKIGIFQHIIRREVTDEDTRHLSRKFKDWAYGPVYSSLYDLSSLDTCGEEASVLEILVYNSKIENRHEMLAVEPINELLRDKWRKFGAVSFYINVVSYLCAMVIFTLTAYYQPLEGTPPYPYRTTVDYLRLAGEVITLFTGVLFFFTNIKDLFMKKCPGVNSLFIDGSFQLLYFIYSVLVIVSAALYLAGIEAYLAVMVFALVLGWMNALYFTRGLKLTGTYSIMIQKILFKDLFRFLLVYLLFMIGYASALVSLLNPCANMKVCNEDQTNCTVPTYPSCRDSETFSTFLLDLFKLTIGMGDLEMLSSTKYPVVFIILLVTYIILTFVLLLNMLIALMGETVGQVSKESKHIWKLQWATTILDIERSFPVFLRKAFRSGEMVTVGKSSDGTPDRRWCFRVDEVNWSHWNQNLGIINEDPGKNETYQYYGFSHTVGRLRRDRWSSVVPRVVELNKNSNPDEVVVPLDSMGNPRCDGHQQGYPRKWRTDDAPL
- Sequence (P61586 1-190 partner): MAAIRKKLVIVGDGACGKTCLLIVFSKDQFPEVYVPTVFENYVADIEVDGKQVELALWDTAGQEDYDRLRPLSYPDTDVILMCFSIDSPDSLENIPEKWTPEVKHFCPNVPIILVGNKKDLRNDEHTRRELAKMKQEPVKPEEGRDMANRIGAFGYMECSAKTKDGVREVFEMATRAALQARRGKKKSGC
readout.label: IC50 (nM)
Just the number in nM, nothing appended.

INPUT: Which measured IC50 value corresponds to Cc1c(C(=O)Nc2cccc(C(F)(F)F)c2)cc(-c2ccccc2)n1CCCN1CCOCC1 [HC-067047] ?
OUTPUT: 25
